Assay remarks: Solubility of the compound at pH 6.5
Assay type: physicochemical
Settings: buffer
Measured metric: solubility

Study these solved cases before continuing.
In [3]: df
Out[3]:
                                   compound   observed_result
0  COc1ccc(Cl)cc1NC(=O)C1C(c2ccc(S(N)(=O)=O)cc2)C12CCCC2 (racemic)  1.6 to 3.1 µg/mL
1  COc1ccc(Cl)cc1NCC1C(c2ccc(S(N)(=O)=O)cc2)C1(C)C (racemic)       > 100 µg/mL
2  COc1ccc(Cl)cc1NC(=O)C1C(c2ccc(S(N)(=O)=O)cc2)C1(C)C (racemic)  3.1 to 6.3 µg/mL

Now look at this entry.
Which solubility is listed for COc1ccc(Cl)cc1NC[C@@H]1[C@@H](c2ccc(S(N)(=O)=O)cc2)C1(C)C ?
1.6 to 3.1 µg/mL

###

Assay remarks: Oral bioavailability in Sprague-Dawley rat
Type: ADME, organism-based
Settings: in vivo
Measured metric: bioavailability (%)

In [3]: df
Out[3]:
                        structure_as_smiles  measured_metric  observed_result
0  COc1ccc(Cl)cc1NC[C@@H]1[C@@H](c2ccc(S(N)(=O)=O)cc2)C1(C)C  bioavailability               62
1  COc1ccc(Cl)cc1NC[C@H]1[C@H](c2ccc(S(N)(=O)=O)cc2)C1(C)C  bioavailability               77

###

Target or system: Neuronal acetylcholine receptor subunit alpha-7 (Rattus norvegicus) (UniProt Q05941)
Sequence (Q05941 whole entry): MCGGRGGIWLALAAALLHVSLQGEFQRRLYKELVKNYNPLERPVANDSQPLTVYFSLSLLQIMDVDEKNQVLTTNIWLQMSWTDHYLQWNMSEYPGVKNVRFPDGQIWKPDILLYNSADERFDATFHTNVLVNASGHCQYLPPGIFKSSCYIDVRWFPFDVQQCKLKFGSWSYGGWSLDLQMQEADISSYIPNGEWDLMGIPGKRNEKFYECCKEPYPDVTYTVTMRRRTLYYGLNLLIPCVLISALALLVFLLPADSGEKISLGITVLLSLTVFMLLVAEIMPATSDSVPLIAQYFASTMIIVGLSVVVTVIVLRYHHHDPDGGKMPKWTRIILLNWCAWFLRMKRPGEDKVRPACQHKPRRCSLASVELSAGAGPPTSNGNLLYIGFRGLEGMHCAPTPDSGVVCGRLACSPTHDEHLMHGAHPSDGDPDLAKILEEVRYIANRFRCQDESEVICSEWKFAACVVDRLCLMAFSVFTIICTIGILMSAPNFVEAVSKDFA
Assay remarks: Positive allosteric modulator activity at rat alpha7 nAChR expressed in GH4C1 cells assessed as potentiation of acetylcholine response at 3 uM at -70 mV holding potential preincubated for 30 secs followed by co-application with acetylcholine by automated patch clamp assay
Type: cell-based
Measured metric: Activity (%)

Study these solved cases before continuing.
>>> print(df.to_string())
                                   molecule  measured_metric  unit_info  observed_result
0  CC1(C)[C@H](CNc2ccc(F)cc2C(F)(F)F)[C@H]1c1ccc(S(N)(=O)=O)cc1         Activity          %              410
1  CC1(C)[C@@H](CNc2ccc(F)cc2OC(F)F)[C@@H]1c1ccc(S(N)(=O)=O)cc1         Activity          %             8170
2  Cc1ccc(F)cc1NC[C@@H]1[C@@H](c2ccc(S(N)(=O)=O)cc2)C1(C)C         Activity          %              460
3  COc1ncccc1NCC1C(c2ccc(S(N)(=O)=O)cc2)C1(C)C (racemic)         Activity          %             2420
4  Cc1ccc(Cl)cc1NCC1C(c2ccc(S(N)(=O)=O)cc2)C1(C)C (racemic)         Activity          %            12300

1: CC1(C)C(CNc2cncc(F)c2)C1c1ccc(S(N)(=O)=O)cc1 (racemic)
2: Cc1cc(F)c(F)cc1NC[C@H]1[C@H](c2ccc(S(N)(=O)=O)cc2)C1(C)C
Looking at 1 and 2 , which one comes out lower in Activity terms? Mark your answer with the label of the selected entry.
1
(1: 3000%, 2: 8930%)

P: CC1(C)C(CNc2cccc(N3CCOCC3)c2)C1c1ccc(S(N)(=O)=O)cc1 (racemic)
Q: CC1(C)C(CNc2ccc(F)cc2OC(F)F)C1c1ccc(S(N)(=O)=O)cc1 (racemic)
R: Cc1ncccc1NCC1C(c2ccc(S(N)(=O)=O)cc2)C1(C)C (racemic)
Ascending by Activity, please. Answer by listing the labels in the requested order.
R, P, Q
(R: 130%, P: 460%, Q: 3360%)

1: COc1ccc(Cl)cc1NC(=O)c1cccc(-c2ccc(S(N)(=O)=O)cc2)c1
2: Cc1cc(F)ccc1NC[C@H]1[C@H](c2ccc(S(N)(=O)=O)cc2)C1(C)C
Given 1 and 2 , report the one with the higher recorded Activity. Mark your answer with the label of the selected entry.
2
(2: 17600%, 1: 410%)
